Listed substances paired with reported % Change in apolipoprotein B mRNA expression
- System: human apolipoprotein B mRNA
- test_name: Inhibition of human apolipoprotein B mRNA levels in HepG2 cells, quantitative real-time PCR
- Format: cell-based
- experimental_setup: HepG2 cells; 150 nM; 24 hour (Table 41)
In the oligonucleotide strings, read from the 5' end, every base follows the letter of its sugar. An asterisk marks phosphorothioate; unmarked linkages are phosphodiester. Other units and linkages are bracketed, terminal groups are in braces. A string of capitals states the bases alone. e = 2'-O-(2-methoxyethyl) (MOE); [5mC] = 5-methylcytosine; d = 2'-deoxy (DNA)
Give the value, in units of %, as a plain number.

Some solved entries appear below for comparison.
| substance | value_reported |
| --- | --- |
| 332785 (antisense GCTTCGCACC; linkages s4 o1 s4 (s phosphorothioate, o phosphodiester), sugars by position and methylation of C not given here; 2'-MOE wings flank a DNA gap) [compound 332785] | −4 |
| 331022 (antisense GCCTCAGTCTGCTTCGCAC; sugars from the 5' end e5 d10 e4, all phosphorothioate, methylation of C not given here) [compound 331022] | −87 |
| 332782 (antisense TCAGTCTGCTTCGC; all phosphorothioate, sugars by position and methylation of C not given here; 2'-MOE wings flank a DNA gap) [compound 332782] | −69 |
| 301012 (eG*e[5mC]*e[5mC]*eT*e[5mC]*dA*dG*dT*d[5mC]*dT*dG*d[5mC]*dT*dT*d[5mC]*eG*e[5mC]*eA*e[5mC]*e[5mC]) [compound 301012] | −92 |
| 332780 (antisense CCTCAGTCTGCTTCGCAC; sugars from the 5' end e4 d10 e4, all phosphorothioate, methylation of C not given here) [compound 332780] | −74 |

Per the record, 332781 (antisense CTCAGTCTGCTTCGCA; sugars from the 5' end e3 d10 e3, all phosphorothioate, methylation of C not given here) [compound 332781] has % Change in apolipoprotein B mRNA expression of −60

# % Change in apolipoprotein B mRNA expression (substance: 332778 (antisense GCCTCAGTCTGCTTC; sugars from the 5' end e5 d10, linkages s4 o1 s9 (s phosphorothioate, o phosphodiester), methylation of C not given here) [compound 332778] ) is −58

get_value(item= 332777 (antisense GCCTCAGTCTGCTTCGCA; sugars from the 5' end e5 d10 e3, all phosphorothioate, methylation of C not given here) [compound 332777] , readout=% Change in apolipoprotein B mRNA expression) returns -80
